Target: pancreatic α-amylase (Homo sapiens, UniProt P04746)
Sequence (P04746 16-511): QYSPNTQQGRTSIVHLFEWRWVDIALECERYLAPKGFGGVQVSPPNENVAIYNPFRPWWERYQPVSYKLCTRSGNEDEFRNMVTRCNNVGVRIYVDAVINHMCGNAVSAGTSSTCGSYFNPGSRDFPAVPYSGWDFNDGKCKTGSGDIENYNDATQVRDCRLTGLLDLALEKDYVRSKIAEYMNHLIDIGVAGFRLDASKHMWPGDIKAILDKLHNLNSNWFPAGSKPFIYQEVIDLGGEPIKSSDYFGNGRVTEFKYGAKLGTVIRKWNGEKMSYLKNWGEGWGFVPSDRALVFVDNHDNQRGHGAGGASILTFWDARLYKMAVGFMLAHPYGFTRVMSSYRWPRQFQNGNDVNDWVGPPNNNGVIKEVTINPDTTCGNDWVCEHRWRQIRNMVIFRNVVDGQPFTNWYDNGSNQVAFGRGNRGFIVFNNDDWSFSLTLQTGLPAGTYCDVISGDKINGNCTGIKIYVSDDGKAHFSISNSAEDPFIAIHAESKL
pIC50: −log10 of the molar value.
metricName: pIC50

1. Cc1cc(C)c(/N=C/c2ccc3ccccc3c2)c(C)c1 ... 3.67
2. CC(C)c1cccc(C(C)C)c1/N=C/c1ccc2ccccc2c1 ... < 2.80

Now consider a different compound.
IN: Can you share its pIC50? I mean this compound: `Cc1cccc(C)c1/N=C/c1ccc2ccccc2c1`
OUT: < 2.71

---

The listing below reports pIC50 for compounds tested on yeast α-glucosidase (Saccharomyces cerevisiae, UniProt P53341).
Sequence (P53341 whole entry): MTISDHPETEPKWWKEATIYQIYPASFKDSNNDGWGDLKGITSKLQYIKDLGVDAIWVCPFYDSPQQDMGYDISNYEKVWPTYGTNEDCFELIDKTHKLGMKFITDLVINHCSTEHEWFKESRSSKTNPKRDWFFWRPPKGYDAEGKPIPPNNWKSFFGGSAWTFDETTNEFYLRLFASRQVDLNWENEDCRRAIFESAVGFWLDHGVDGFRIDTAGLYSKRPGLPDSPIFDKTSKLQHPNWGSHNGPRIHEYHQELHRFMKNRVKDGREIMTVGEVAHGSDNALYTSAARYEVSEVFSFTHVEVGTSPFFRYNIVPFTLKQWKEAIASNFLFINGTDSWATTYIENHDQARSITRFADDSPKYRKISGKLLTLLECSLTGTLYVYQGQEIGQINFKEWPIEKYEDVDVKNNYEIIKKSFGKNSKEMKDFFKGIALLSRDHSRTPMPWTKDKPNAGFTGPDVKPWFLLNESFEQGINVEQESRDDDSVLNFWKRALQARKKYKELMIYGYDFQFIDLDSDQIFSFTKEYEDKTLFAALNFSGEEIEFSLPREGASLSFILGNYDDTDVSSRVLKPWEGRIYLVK
// scale note: pIC50 = -log10(conc_M); give the bare number

1) CC(C)c1cccc(C(C)C)c1/N=C/c1ccc2ccccc2c1 ... 3.19

IN: Write down the reported pIC50 of `Cc1cccc(C)c1/N=C/c1ccc2ccccc2c1` , test system: yeast α-glucosidase (Saccharomyces cerevisiae, UniProt P53341).
OUT: 3.25

---

experiment: Ferric; details: ferric reducing power, 63–500 μg/mL, 700 nm
metricName: FRAP IC50

1) Cc1cccc(C)c1/N=C/c1ccc2ccccc2c1 ... >500 µg/mL
2) Cc1cc(C)c(/N=C/c2ccc3ccccc3c2)c(C)c1 ... >500 µg/mL
3) C[C@H]1O[C@H](O[C@H]2[C@H](O)[C@@H](O)[C@@H](O[C@H]3[C@H](O)[C@@H](O)C(O)O[C@@H]3CO)O[C@@H]2CO)[C@H](O)[C@@H](O)[C@@H]1N[C@H]1C=C(CO)[C@@H](O)[C@H](O)[C@H]1O (some centres unmarked) [Acarbose, reference compound] ... 292,51 μg/mL
4) CC(C)c1cccc(C(C)C)c1/N=C/c1ccc2ccccc2c1 ... >500 µg/mL

IN: Can you share its FRAP IC50? I mean this molecule: Cc1c(C)c2c(c(C)c1O)CCC(C)(C(=O)O)O2 (centres unmarked) [Trolox, reference compound]
OUT: 292.51 µg/mL
